The following compounds have recorded MIC on Enterobacter cloacae NR 2946.
Report the figure in µg/mL without appending any unit label.

Below, 5 compounds whose answers are already recorded.
>  <COMPOUND>
CN1COc2c(N3CCN(CS(=O)(=O)O)CC3)c(F)cc3c(=O)c(C(=O)O)cn1c23

>  <RESULT_UNITS>
µg/mL

>  <MIC>
0.05

$$$$
>  <COMPOUND>
COC1CCN(c2c(F)cc3c(=O)c(C(=O)O)cn4c3c2OCN4C)CC1

>  <RESULT_UNITS>
µg/mL

>  <MIC>
6.25

$$$$
>  <COMPOUND>
CN1COc2c(N3CCC(N)CC3)c(F)cc3c(=O)c(C(=O)O)cn1c23

>  <RESULT_UNITS>
µg/mL

>  <MIC>
0.2

$$$$
>  <COMPOUND>
CC1CN(c2c(F)cc3c(=O)c(C(=O)O)cn4c3c2OCN4C)CCN1C (stereo not drawn)

>  <RESULT_UNITS>
µg/mL

>  <MIC>
0.1

$$$$
>  <COMPOUND>
CNC1CCN(c2c(F)cc3c(=O)c(C(=O)O)cn4c3c2OCN4C)C1 (stereo not drawn)

>  <RESULT_UNITS>
µg/mL

>  <MIC>
0.05

$$$$

Turning now to a further compound:
Problem: For the compound CN1COc2c(N3CCNC(c4ccccc4)C3)c(F)cc3c(=O)c(C(=O)O)cn1c23 (stereo not drawn) , what MIC is on record?
Result: 0.05
